target desc: T1, human IL-2Rβ (human, UniProt P14784 27-240, limits assumed)
T1 construct: recombinant protein, coated or immobilised; also called hu IL-2R; IL-2R beta
T1 sequence: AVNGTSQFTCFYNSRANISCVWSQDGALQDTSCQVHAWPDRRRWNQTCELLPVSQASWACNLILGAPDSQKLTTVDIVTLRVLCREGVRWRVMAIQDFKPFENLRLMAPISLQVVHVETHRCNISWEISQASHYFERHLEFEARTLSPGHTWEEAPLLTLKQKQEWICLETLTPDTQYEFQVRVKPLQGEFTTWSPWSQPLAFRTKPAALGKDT
experiment summary: SPR, P.E. off-rate
quantity name: koff

In plain terms, FJ1427_P035MP02A08 (VHH, soluble VHH in periplasmic extract; also called clone nr) VHH: EVQLVESGGGLVQAGGSLRLSCTVSGDVFVRYTMAWFRQAPGKEREFVATVTDSGRTTEYVDSVKGRFTVSRDNAKNTVYLQMNNLKPEDTAVYYCAANTDYFRIRSLDANTWGQGTQVTVSS has a documented koff of 0.00198 s⁻¹

In plain terms, FJ1427 P035MP02H09 (VHH, soluble VHH in periplasmic extract; also called clone nr) VHH: QLQLVESGGGLVQPGGSLRLSCAAAGRAIENYPVGWFRRAPGKEREFVAAITWISGSTLYADSVKGRFTISRDNAKNTVYLQMSSLKPEDTALYYCAAALKTITRGQNDYSYWGQGTQVTVSS has a documented koff of 0.000141 s⁻¹

In plain terms, FJ1427_P035MP02H08 (VHH, soluble VHH in periplasmic extract; also called clone nr; 160) VHH: EVQLVESGGGLVQAGDSLRISCAASGRIFSNYAMGWFRQAPGKETEFVAGITHLTSTTHYADSVKGRFTISRDNAKNTMHLQMNNLKPEDTALYYCAADRNIKITADWSYWGQGTQVTVAS has a documented koff of 0.000731 s⁻¹

In plain terms, FJ1427_P035MP02A09 (VHH, soluble VHH in periplasmic extract; also called clone nr) VHH: QVQLVESGGGLVQAGGSLRLSCAVSGDVFVRYTMAWFRQAPGKEREFVASVTDSGRTTEYVDSAKGRFTVSRDNAKNTVYLQMNSLKPEDTAVYYCAANTDYFQIRSLRANTWGQGTQVTVSS has a documented koff of 0.000617 s⁻¹

In plain terms, FJ1427_P035MP02F09 (VHH, soluble VHH in periplasmic extract; also called clone nr) VHH: EVQLVESGGGLVQAGGSLRLSCAASGDVFVRYTMAWFRQAPGKEREFVASVTDSGRTTDYVDSVKGRFTVSRDNAKNTVYLQMNNLKPEDTAVYYCAANTDYFQIRSLEFNTWGQGTQVTVSS has a documented koff of 0.00107 s⁻¹

In plain terms, FJ1427_P035MP02B01 (VHH, soluble VHH in periplasmic extract; also called clone nr; 98) VHH: QVQLVESGGGLVQTGGSLRLSCAASGSQFINDVMGWYRQVPGKQRELVADMDDTGSTKYADSVKGRFTILRDSVKNTAYLQMSNLKPEDTGVYYCKAGLWIKGRHFDYWGQGTQVTVSS has a documented koff of 0.000119 s⁻¹

In plain terms, FJ1427_P035MP02G07 (VHH, soluble VHH in periplasmic extract; also called clone nr) VHH: QVQLVESGGGLVQAGGSLRLSCAVSGDVFVRYTMAWFRQAPGKEREFVASVTDSGRTTEYVDSVKGRFTVSRDNAKNTAYLQMNNLKPEDTAVYYCAANTDYFQIRSLDLNTWGQGTQVTVSS has a documented koff of 0.000259 s⁻¹

In plain terms, FJ1427_P035MP02F06 (VHH, soluble VHH in periplasmic extract; also called clone nr) VHH: EVQLVESGGGLVQTGGSLRLSCAASGSRFISDFMGWYRQVPGKQRELVADMADGGSARYGDSVKGRFTILRESGNATAYLQMSSLKPEDTGVYYCKAGLWIAGRHFDYWGQGTQVTVSS has a documented koff of 0.000203 s⁻¹
